biological target: C-C chemokine receptor type 10 (Homo sapiens); assay: Agonist activity at CCR10 (unknown origin)
readout name: EC50

Lookup: Give the measured EC50 of `CC1=CCC[C@H]1NC(=O)Nc1ccc(Cl)c(S(=O)(=O)[C@@]2(C)CCOC2)c1O` .
Found: > 10 µM

---

target: C-C chemokine receptor type 10 (Homo sapiens) (UniProt P46092)
Sequence (P46092 whole entry, looked up): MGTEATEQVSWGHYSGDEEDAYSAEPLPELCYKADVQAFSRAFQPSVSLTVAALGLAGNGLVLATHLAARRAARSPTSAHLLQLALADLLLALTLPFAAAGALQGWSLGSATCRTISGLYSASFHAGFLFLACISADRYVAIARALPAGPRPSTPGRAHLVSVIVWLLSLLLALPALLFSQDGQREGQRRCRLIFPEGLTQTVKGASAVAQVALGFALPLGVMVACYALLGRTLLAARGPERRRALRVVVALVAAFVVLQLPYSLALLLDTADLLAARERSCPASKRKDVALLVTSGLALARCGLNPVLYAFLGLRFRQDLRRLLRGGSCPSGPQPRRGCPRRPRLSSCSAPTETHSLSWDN
readout name: IC50

Lookup: For the compound `CC1=CCC[C@H]1NC(=O)Nc1ccc(Cl)c(S(=O)(=O)[C@@]2(C)CCOC2)c1O` , what IC50 is on record?
Found: > 10 µM
